Taken from ChEMBL document CHEMBL1126327.

system: Rattus norvegicus; assay: Oral antihypertensive activity in spontaneously hypertensive rats at a dose of 10 mg/kg (po); type: functional
Recorded Max fall in blood pressure by entry
The number alone won't do; follow it with the unit.

Use these answered entries as a reference point.
# Compound, Result type, Meas value
records = [
    ("CNC(=O)N[C@@H]1C(O)c2cc(C#N)ccc2OC1(C)C (stereo not given in full)", "Max fall in blood pressure", "-24%"),
    ("CC(C)(C)OC(=O)N[C@@H]1C(N)c2cc(C#N)ccc2OC1(C)C (stereo not given in full)", "Max fall in blood pressure", "-25%"),
    ("CC(=O)N[C@@H]1C(O)c2cc(C#N)ccc2OC1(C)C (stereo not given in full)", "Max fall in blood pressure", "-32%"),
    ("CC(C)(C)OC(=O)N[C@@H]1Cc2cc(C#N)ccc2OC1(C)C", "Max fall in blood pressure", "-30%"),
]

Record lookup: for Rattus norvegicus, what Max fall in blood pressure belongs to CC1(C)Oc2ccc(C#N)cc2C(O)[C@H]1N1CCCCC1=O (stereo not given in full) ?
-16%

* * *

tested on: Rattus norvegicus; test: Oral antihypertensive activity in spontaneously hypertensive rats at a dose of 1 mg/kg (po); type: functional
The following molecules are listed with their measured Max fall in blood pressure values.

Examples with answers:
# Molecule, Max fall in blood pressure
rows = [
    ("CC1(C)Oc2ccc(C#N)cc2C(N2CCCC2=O)C1O (stereo unspecified)", "-47%"),
    ("CC(C)(C)CC(=O)N[C@@H]1C(O)c2cc(C#N)ccc2OC1(C)C (stereo partly specified)", "-9%"),
    ("CCCNC(=O)N[C@@H]1C(O)c2cc(C#N)ccc2OC1(C)C (stereo partly specified)", "-10%"),
    ("CC(C)(C)NC(=O)N[C@@H]1C(O)c2cc(C(F)(F)F)ccc2OC1(C)C (stereo partly specified)", "-31%"),
    ("CC1(C)Oc2ccc(C#N)cc2C(O)[C@H]1NC(=O)c1ccccn1 (stereo partly specified)", "-18%"),
]

Need Max fall in blood pressure of CC1(C)Oc2ccc(C#N)cc2C(O)[C@H]1NC(=O)c1ccc(F)cc1 (stereo partly specified) , thanks.
-22%

For the molecule CC1(C)Oc2ccc(C#N)cc2C(O)[C@H]1NC(=O)C1CCCCC1 (stereo partly specified) , what Max fall in blood pressure is on record?
-11%

Which Max fall in blood pressure value belongs to CC1(C)Oc2ccc(C#N)cc2C(O)[C@H]1NC(=O)c1ccc(F)c(F)c1 (stereo partly specified) ?
-6%

* * *

system: Rattus norvegicus; experiment: Oral antihypertensive activity in spontaneously hypertensive rats at a dose of 1 mg/kg (po); format: functional
Result type: Max fall in blood pressure (%)
Reply numerically in %, unit not repeated.

// returns reported Max fall in blood pressure for input CC(C)NC(=O)N[C@@H]1C(O)c2cc(C#N)ccc2OC1(C)C (stereo partly drawn)
-26

For CCNC(=O)N[C@@H]1C(O)c2cc(C#N)ccc2OC1(C)C (stereo partly drawn) , what is its reported Max fall in blood pressure?
-13

I would be grateful if you could share the reported Max fall in blood pressure for CC(C)(C)C(=O)N[C@@H]1C(O)c2cc(C#N)ccc2OC1(C)C (stereo partly drawn) .
-36
